B1: CHMP4C (parent)
chain: TNIRLPNVPSSSLPAQPNRKPGMS

# Variants of: B1
# assayText: protein stability index of a GFP-peptide fusion (GPS, HEK-293T) (PSI 1-6); higher = more stable;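 also: lentivirally expressed fusions sorted by FACS into six bins by GFP to DsRed ratio, PSI derived from sequencing read proportions per bin multiplied by bin number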
# cond: c terminus: a fixed tail appended
Give protein stability index for every item shown.

The following variants have reported results that may help.
P21N ... 4.11
M23F ... 4.42
N18R ... 4.69

Quick one: give me protein stability index for each item below, same order please.
1. S24N
2. P9S
3. N7T
4. P9H
5. V8F

result:
4.57
4.68
4.95
4.49
4.29

Consider the following items and state reported protein stability index for each.
1. R19P
2. P9K
3. Q16T

result:
4.77
4.78
4.53

Values compiled from the supplement of paper PMC10567573.
